tested on: RXF 393 renal; test: NCI-60 one-dose screen, 48 h (100 = growth as untreated, 0 = no growth, -100 = all killed); settings: 10 µM unless noted
The panel holds about 83,000 compounds, 20% with a hit somewhere; the sample as a whole holds those more often.
growth values by entry
// note: answer is a bare numeric in %

Consider the reported growth for these compounds:
compound | output unit | growth
CCOC(=O)N1CCN(CCCCOc2ccc(C(C)(C)CC)cc2)CC1 | % | 111
O=C1CNCCN1 | % | 98.5
Cn1cc(-c2csc(-c3c[nH]c4ccccc34)n2)c2cccnc21 | % | 12.6
COc1cc(-c2cc(-c3nc4cc(Cl)c(Cl)cc4[nH]3)[nH]n2)cc(OC)c1OC | % | 70.6
Oc1cc(/C=C/c2nc(N3CCOCC3)c3cc(Cl)c(Cl)cc3n2)cc(O)c1O | % | 98.8
C=C(C)[C@@H]1CC[C@]2(C(=O)O)CC[C@]3(C)[C@H](CC[C@@H]4[C@@]5(C)C/C(=C/c6cccc(I)c6)C(=O)C(C)(C)[C@@H]5CC[C@]43C)[C@@H]12 | % | 51.9
CC(=O)Nc1cc(F)cc(C(F)(F)F)c1Cl | % | 89.4
COc1ccc2c(c1)c1nc3cc(C)c(C)cc3nc1n2CCN(C)C | % | 13.2

Query block: API: value(readout=growth, system=RXF 393 renal) for record CC1c2ccccc2N(S(=O)(=O)c2ccccc2)C1C (stereo not given)
Result block: 88

Query block: API: value(readout=growth, system=RXF 393 renal) for record "Fc1ccc2c(c1)c(-c1nc(-c3c[nH]c4ncccc34)cs1)cn2CCCN1CCCCC1"
Result block: 69.4

###

growth values by entry
system: HOP-92 NSCLC; test: NCI-60 one-dose screen, 48 h (100 = growth as untreated, 0 = no growth, -100 = all killed); conditions: 10 µM unless noted
About 83,000 compounds went through this panel and 20% of them were active in at least one assay; those are over-represented in the sample as a whole. The source made the active and inactive calls. The calls were made as follows: active = growth percent below 10; inactive = the rest.

compound | tgt | value reported
CC(=O)OC(C)COc1ccc(-c2ccccc2)cc1 (centres undefined) | HOP-92 NSCLC | 89.9% (inactive)
CC(=O)O[C@@H]1CCN2C(=O)N(C)c3ccccc3[C@@H]2C1 | HOP-92 NSCLC | 111% (inactive)
O=c1[nH]c2c3ccncc3cc(-c3cccc(Cl)c3)c2c2cnccc12 | HOP-92 NSCLC | 5.61% (active)
Cn1c(=O)c2c(ncn2CC(=O)Nc2ccc(S(N)(=O)=O)cc2)n(C)c1=O | HOP-92 NSCLC | 90.1% (inactive)
COc1cccc(-c2nn(-c3ccccc3)cc2-c2ccnc(NCCNS(=O)(=O)c3ccc(C(F)(F)F)cc3)c2)c1 | HOP-92 NSCLC | -10.9% (active)

Query block: // query growth value for entry "CN1CCN(c2ccc3nc(-c4[nH]ncc4Nc4ncnc5[nH]ccc45)[nH]c3c2)CC1"
Result block: 26.9% (inactive)

Query block: // query growth value for entry "Brc1ccc2c(c1)c(-c1nc(-c3c[nH]c4ncccc34)cs1)cn2CCCN1CCCCC1"
Result block: 31.7% (inactive)

Query block: // query growth value for entry "O=C1c2cc3c(cc2-c2c1c1ccc(F)cc1c(=O)n2CCCN1CCOCC1)OCO3"
Result block: 68.4% (inactive)

Query block: // query growth value for entry "COc1ccc2c3c(c4ccccc4cc13)C(=O)N(CCN(C)CCN)C2=O"
Result block: -7.66% (active)

Query block: // query growth value for entry "CC(=O)O[C@H]1CC[C@]2(C)[C@H]3CC=C4[C@@H]5[C@H](C)[C@@H](C)CC[C@]5(C(=O)NCCNCCNCCN)CC[C@@]4(C)[C@]3(C)CC[C@H]2C1(C)C"
Result block: 55% (inactive)
